System: human PBMCs
ASSAY_PROTOCOL: MTS staining for PBMC viability (cytotoxicity)
COND: read-out: TC50; PBMCs, 1064-52 assay, MTS
RECORDED_ENDPOINT: CC50

{"columns": ["COMPOUND_SMILES", "TESTED_ON", "MEASUREMENT"],
 "data": [
  ["O=C1Nc2ccc(Cl)cc2[C@@](C#CC2CC2)(C(F)(F)F)O1", "human PBMCs", "> 1000 nM"],
  ["COc1cc2c(cc1Cc1cccc(Cl)c1F)c(=O)c(C(=O)O)cn2[C@H](CO)C(C)C", "human PBMCs", "> 100 nM"]
]}

---

Test system: human PBMCs
ASSAY_PROTOCOL: MTS staining for PBMC viability (cytotoxicity)
COND: read-out: TC50; PBMCs, 96USHIPS7 assay, MTS
RECORDED_ENDPOINT: CC50

{"columns": ["COMPOUND_SMILES", "MEASUREMENT"],
 "data": [
  ["COc1cc2c(cc1Cc1cccc(Cl)c1F)c(=O)c(C(=O)O)cn2[C@H](CO)C(C)C", "> 100 nM"]
]}

---

ASSAY_PROTOCOL: MTS cytotoxicity in monocyte/macrophage cultures
Format: cell-based
COND: human, TC50
Structures can show the parent of a compound that is named as a salt.
RECORDED_ENDPOINT: CC50 at 7 days

{"columns": ["COMPOUND", "MEASUREMENT"],
 "data": [
  ["Cc1c(O)cccc1C(=O)N[C@@H](CSc1ccccc1)[C@H](O)CN1C[C@H]2CCCC[C@H]2C[C@H]1C(=O)NC(C)(C)C [Nelfinavir, nelfinavir mesylate]", "> 10 µM"]
]}

---

Entries annotated with measured CC50
System: human PBMCs
ASSAY_PROTOCOL: MTS staining for PBMC viability (cytotoxicity)
COND: read-out: TC50; PBMCs, JV 1083 assay, MTS
RECORDED_ENDPOINT: CC50

{"columns": ["COMPOUND_SMILES", "MEASUREMENT"],
 "data": [
  ["COc1cc2c(cc1Cc1cccc(Cl)c1F)c(=O)c(C(=O)O)cn2[C@H](CO)C(C)C", "> 100 nM"],
  ["O=C1Nc2ccc(Cl)cc2[C@@](C#CC2CC2)(C(F)(F)F)O1", "> 1000 nM"]
]}

---

Tested on: human PBMCs
COND: 7 days
Where a name gives a salt, the structure may show the parent alone.

{"columns": ["COMPOUND", "TESTED_ON", "CC50"],
 "data": [
  ["O=C1Nc2ccc(Cl)cc2[C@@](C#CC2CC2)(C(F)(F)F)O1", "human PBMCs", "> 1000 nM"],
  ["Cc1c(O)cccc1C(=O)N[C@@H](CSc1ccccc1)[C@H](O)CN1C[C@H]2CCCC[C@H]2C[C@H]1C(=O)NC(C)(C)C [Nelfinavir, nelfinavir mesylate]", "human PBMCs", "> 1000 nM"],
  ["COc1cc2c(cc1Cc1cccc(Cl)c1F)c(=O)c(C(=O)O)cn2[C@H](CO)C(C)C", "human PBMCs", "> 100 nM"]
]}

---

Entries annotated with measured pIC50
Test system: drug-resistant HIV-1 isolates
ASSAY_PROTOCOL: Anti-HIV efficacy in fresh human PBMCs, drug-resistant HIV-1 isolates
COND: Human immunodeficiency virus 1, PBMC, in Homo sapiens, multi-drug-resistant HIV-1 MDR 807 in PBMCs
pIC50: −log10 of the molar value. Structures can show the parent of a compound that is named as a salt.

{"columns": ["MOLECULE", "pIC50"],
 "data": [
  ["COc1cc2c(cc1Cc1cccc(Cl)c1F)c(=O)c(C(=O)O)cn2[C@H](CO)C(C)C", 8.95],
  ["O=C1Nc2ccc(Cl)cc2[C@@](C#CC2CC2)(C(F)(F)F)O1", 9.15],
  ["Cc1c(O)cccc1C(=O)N[C@@H](CSc1ccccc1)[C@H](O)CN1C[C@H]2CCCC[C@H]2C[C@H]1C(=O)NC(C)(C)C [Nelfinavir, nelfinavir mesylate]", 6.87]
]}

---

Test system: human PBMCs
ASSAY_PROTOCOL: MTS staining for PBMC viability (cytotoxicity)
COND: read-out: TC50; PBMCs, BR/93/020 assay, MTS

{"columns": ["COMPOUND", "CC50"],
 "data": [
  ["O=C1Nc2ccc(Cl)cc2[C@@](C#CC2CC2)(C(F)(F)F)O1 [Efavirenz, efavirenz]", "> 1000 nM"],
  ["COc1cc2c(cc1Cc1cccc(Cl)c1F)c(=O)c(C(=O)O)cn2[C@H](CO)C(C)C [Compound I]", "> 100 nM"]
]}

---

Entries annotated with measured CC50
Test system: human PBMCs
ASSAY_PROTOCOL: MTS staining for PBMC viability (cytotoxicity)
COND: read-out: TC50; PBMCs, UG/92/046 assay, MTS
RECORDED_ENDPOINT: CC50

{"columns": ["COMPOUND_SMILES", "RECORDED_ENDPOINT", "MEASUREMENT"],
 "data": [
  ["O=C1Nc2ccc(Cl)cc2[C@@](C#CC2CC2)(C(F)(F)F)O1", "CC50", "> 1000 nM"],
  ["COc1cc2c(cc1Cc1cccc(Cl)c1F)c(=O)c(C(=O)O)cn2[C@H](CO)C(C)C", "CC50", "> 100 nM"]
]}

---

ASSAY_PROTOCOL: MTS staining for PBMC viability (cytotoxicity)
COND: human

{"columns": ["COMPOUND", "CC50 at 7 days"],
 "data": [
  ["COc1cc2c(cc1Cc1cccc(Cl)c1F)c(=O)c(C(=O)O)cn2[C@H](CO)C(C)C [Compound I]", "> 100 nM"],
  ["O=C1Nc2ccc(Cl)cc2[C@@](C#CC2CC2)(C(F)(F)F)O1 [Efavirenz, efavirenz]", "> 1000 nM"]
]}

---

Test system: recombinant HIV-1 clones (patient protease/RT sequences in HIV-1 NL4-3)
ASSAY_PROTOCOL: microbe, parasite or virus in culture
Type: cell-based
COND: Human immunodeficiency virus 1, NL43, Reference clone (NL4-3), ten replicates, one experiment
RECORDED_ENDPOINT: EC50 (nM)

{"columns": ["COMPOUND_SMILES", "MEASUREMENT"],
 "data": [
  ["COc1cc2c(cc1Cc1cccc(Cl)c1F)c(=O)c(C(=O)O)cn2[C@H](CO)C(C)C", 1.11]
]}

---

Tested on: human PBMCs
ASSAY_PROTOCOL: MTS staining for PBMC viability (cytotoxicity)
COND: read-out: TC50; PBMCs, BR/92/025 assay, MTS
Entries annotated with measured CC50

{"columns": ["COMPOUND_SMILES", "CC50"],
 "data": [
  ["COc1cc2c(cc1Cc1cccc(Cl)c1F)c(=O)c(C(=O)O)cn2[C@H](CO)C(C)C", "> 100 nM"],
  ["O=C1Nc2ccc(Cl)cc2[C@@](C#CC2CC2)(C(F)(F)F)O1", "> 1000 nM"]
]}

---

Tested on: human PBMCs
ASSAY_PROTOCOL: MTS staining for PBMC viability (cytotoxicity)
COND: read-out: TC50; PBMCs, CMU 02 assay, MTS
Entries annotated with measured CC50

{"columns": ["COMPOUND", "CC50"],
 "data": [
  ["COc1cc2c(cc1Cc1cccc(Cl)c1F)c(=O)c(C(=O)O)cn2[C@H](CO)C(C)C [Compound I]", "> 100 nM"],
  ["O=C1Nc2ccc(Cl)cc2[C@@](C#CC2CC2)(C(F)(F)F)O1 [Efavirenz, efavirenz]", "> 1000 nM"]
]}
